- stated conditions: 20.0 µM
measurement label: relative solubility at 20 uM
Write the number on its own, no unit after it.

Example entries begin here.
Q: Please report relative solubility at 20 uM for the following compound: C=CC(=O)N(c1ccc(C(C)(C)C)cc1)C(C(=O)NCCc1cccc(F)c1)c1cccnc1 (stereo not given)
Ans: 0.98

Q: Please report relative solubility at 20 uM for the following compound: Cc1ccccc1NC1CCN(c2ccc(S(N)(=O)=O)cc2)CC1
Ans: 0.91

Q: Please report relative solubility at 20 uM for the following compound: Cc1ccncc1NC(=O)CCc1ccccn1
Ans: 1

Q: Please report relative solubility at 20 uM for the following compound: Cc1nnn(NC(=O)Cc2cccc(Cl)c2)c1C
Ans: 1

Q: Please report relative solubility at 20 uM for the following compound: O=C(Cc1ccc2[nH]c(=O)[nH]c2c1)NC1(CNC(=O)c2cnc[nH]2)CC1
Ans: 1

Q: Please report relative solubility at 20 uM for the following compound: N#Cc1cc(Cl)cc(NC(=O)Nc2cccnc2)c1
Ans: 0.99

Q: Please report relative solubility at 20 uM for the following compound: C=CC(=O)N(c1ccc(C(C)(C)C)cc1)C(C(=O)NCCc1cccc(F)c1)c1cncc(C)c1 (stereo not given)
Ans: 0.8

Q: Please report relative solubility at 20 uM for the following compound: O=C(Cn1c(=O)[nH]c2ccccc21)Nc1cccc(Cl)c1
Ans: 1

More entries:
Q: Please report relative solubility at 20 uM for the following compound: O=C1C(=O)N(Cc2ccc(Br)cc2)c2c(Br)cccc21
Ans: 0.99

Q: Please report relative solubility at 20 uM for the following compound: O=C(Nc1ccc([N+](=O)[O-])cc1Cl)c1cccc(Cl)c1
Ans: 0.76

Q: Please report relative solubility at 20 uM for the following compound: CC(C)(C)NC(=O)C(c1cccnc1)N(C(=O)c1ccco1)c1ccc(C(C)(C)C)cc1 (stereo not given)
Ans: 1.01

Q: Please report relative solubility at 20 uM for the following compound: C=CC(=O)N(c1ccc2ncsc2c1)C(C(=O)Nc1c(C)cccc1CC)c1cccnc1 (stereo not given)
Ans: 0.97

Q: Please report relative solubility at 20 uM for the following compound: N#Cc1ccc(Nc2ccc(NC(=O)Nc3cccnc3)cc2)nc1
Ans: 1

Q: Please report relative solubility at 20 uM for the following compound: O=C(NCCNc1ccccc1)c1cc(=O)[nH]c2ccccc12
Ans: 1

Q: Please report relative solubility at 20 uM for the following compound: C=CC(=O)N1CCCN(Cc2ccccc2)CC1
Ans: 1

----------
- tested target: SARS-CoV-2 Main Protease (SARS-CoV-2)
- stated conditions: 20.0 µM
Property: inhibition; scope: individual molecules
Number in %, nothing else.

Q: Please report inhibition for the following molecule: O=C(NCCN1CCN(c2ccccc2)CC1)NCc1ccccn1
Ans: 0

Q: Please report inhibition for the following molecule: C=CC(=O)N(c1cc(C(C)(C)C)n[nH]1)C(C(=O)Nc1c(C)cccc1CC)c1cccnc1 (centres undefined)
Ans: 0

Q: Please report inhibition for the following molecule: O=C(Cc1c[nH]c2ncccc12)NCc1ccc(Cl)cc1
Ans: 0

Q: Please report inhibition for the following molecule: Cc1ccncc1NC(=O)CCNc1ccc(S(N)(=O)=O)cc1
Ans: 0

Q: Please report inhibition for the following molecule: C=CC(=O)N(c1ccc(C(C)OC)cc1)C(C(=O)Nc1cccc(CC)c1)c1cccnc1 (centres undefined)
Ans: 4.44

More entries:
Q: Please report inhibition for the following molecule: NC(=O)C1Cc2ccccc2N(CC(=O)Nc2cnccn2)C1 (centres undefined)
Ans: 0

Q: Please report inhibition for the following molecule: C=CC(=O)N(c1ccc2ncsc2c1)C(C(=O)Nc1ccc(OC)cc1)c1cccnc1 (centres undefined)
Ans: 0

Q: Please report inhibition for the following molecule: C=CC(=O)N(c1ccc(C(C)(C)C)cc1)C(C(=O)NC(C)(C)C)c1cncc(Cl)c1 (centres undefined)
Ans: 0

----------
- stated conditions: 20.0 µM
measurement label: relative solubility at 20 uM
Write the number on its own, no unit after it.

Q: Please report relative solubility at 20 uM for the following molecule: C=CC(=O)N(c1ccc(C(C)OC)cc1)C(C(=O)Nc1ccccc1Br)c1cccnc1 (stereo not drawn)
Ans: 0.89

More entries:
Q: Please report relative solubility at 20 uM for the following molecule: C=CC(=O)N(c1ccc(C2(C)CC2)cc1)C(C(=O)Nc1ccc(Br)cc1)c1cccnc1 (stereo not drawn)
Ans: 1

Q: Please report relative solubility at 20 uM for the following molecule: N#Cc1cccc(NC(=O)Nc2c[nH]c3ncccc23)c1
Ans: 1

----------
- tested target: SARS-CoV-2 Main Protease (SARS-CoV-2) (UniProt P0DTD1)
pIC50: −log10 of the molar value.
Classify by measured pIC50: MET if it is equal to or exceeds 5, NOT MET if it is smaller.

Q: State whether the measured pIC50 reaches 5, counting equality as reaching it, for Cc1cc(C)nc(NC2CCN(C(=O)CCl)CC2)n1
Ans: NOT MET

Q: State whether the measured pIC50 reaches 5, counting equality as reaching it, for O=C(c1cncc2ccccc12)N1CCN(c2cccc(Cl)c2)CC1
Ans: MET

Q: State whether the measured pIC50 reaches 5, counting equality as reaching it, for O=C(Nc1ccc(Cl)cc1)[C@@H](c1ccccc1)N1Cc2ccccc2C1=O (stereo in doubt)
Ans: NOT MET

Q: State whether the measured pIC50 reaches 5, counting equality as reaching it, for O=c1oc(Nc2ccccc2)nc2ccccc12
Ans: MET

Q: State whether the measured pIC50 reaches 5, counting equality as reaching it, for O=C(Cn1nnc2ccccc21)N(Cc1ccccc1)c1ccc(N2CCOCC2)cc1
Ans: NOT MET

Q: State whether the measured pIC50 reaches 5, counting equality as reaching it, for CCCc1cc2c(cc1S(=O)(=O)N1CCN(c3ccccc3)CC1)OCO2
Ans: NOT MET

Q: State whether the measured pIC50 reaches 5, counting equality as reaching it, for O=C(Cc1cccc(Cl)c1)Nc1cncc2c1CCC2
Ans: MET

Q: State whether the measured pIC50 reaches 5, counting equality as reaching it, for O=C(CCl)N1CC2CC1CN2Cc1cccc(Cl)c1 (centres undefined)
Ans: MET

----------
- stated conditions: 100.0 µM
measurement label: relative solubility at 100 uM
Write the number on its own, no unit after it.

Example entries begin here.
Q: Please report relative solubility at 100 uM for the following compound: Cc1ccnc(NC(=O)Cc2ccc3ccccc3c2)c1
Ans: 0.94

Q: Please report relative solubility at 100 uM for the following compound: C=CC(=O)N(c1cc(C(C)(C)C)n[nH]1)C(C(=O)Nc1c(C)cccc1CC)c1cccnc1 (stereo not drawn)
Ans: 0.78

Q: Please report relative solubility at 100 uM for the following compound: Cc1ccncc1NC(=O)CN(C)S(=O)(=O)c1cccc2cccnc12
Ans: 1

Q: Please report relative solubility at 100 uM for the following compound: COc1ccc2c(c1)C(C(=O)Nc1cncnc1C)CCC2 (stereo not drawn)
Ans: 1

Q: Please report relative solubility at 100 uM for the following compound: Cc1ccc(O)cc1NC(=O)C(C)(C)c1cccc(F)c1
Ans: 0.92

More entries:
Q: Please report relative solubility at 100 uM for the following compound: C=CC(=O)N(c1ccc(C(C)(C)C)cc1)C(C(=O)NC(C)(C)C)c1cncc(C(C)(F)F)c1 (stereo not drawn)
Ans: 0.96

Q: Please report relative solubility at 100 uM for the following compound: O=C(Nc1ccc(N(Cc2ccsc2)C(=O)Cn2nnc3ccccc32)cc1)C1CC1
Ans: 0.59

Q: Please report relative solubility at 100 uM for the following compound: Cc1cc(C)c(C)c(S(=O)(=O)N2CCN(C(=O)c3cc(=O)[nH]c4ccccc34)CC2)c1C
Ans: 0.65

----------
- tested target: SARS-CoV-2 Main Protease (SARS-CoV-2)
pIC50: −log10 of the molar value.
Classify by measured pIC50: T if it is equal to or exceeds 5, F if it is smaller.

Q: State whether the measured pIC50 reaches 5, counting equality as reaching it, for O=C(c1cc(=O)[nH]c2ccccc12)N1CCN(c2cccc(Cl)c2)CC1
Ans: T

Q: State whether the measured pIC50 reaches 5, counting equality as reaching it, for COc1cc(CN2CCN(C(=O)CCl)CC2)c2ccccc2c1
Ans: T

Q: State whether the measured pIC50 reaches 5, counting equality as reaching it, for O=S(=O)(Cc1ccccc1F)c1oc(-c2ccc(F)cc2)nc1S(=O)(=O)c1ccccc1
Ans: T

More entries:
Q: State whether the measured pIC50 reaches 5, counting equality as reaching it, for O=C(c1cc(=O)[nH]c2ccccc12)N1CCN(Cc2ccccc2)CC1
Ans: F

Q: State whether the measured pIC50 reaches 5, counting equality as reaching it, for COc1cccc(C2=N/C(=C/c3sccc3C)C(=O)O2)c1
Ans: T

Q: State whether the measured pIC50 reaches 5, counting equality as reaching it, for Cc1ccncc1NC(=O)Cc1cc(Cl)cc(CNS(C)(=O)=O)c1
Ans: F

Q: State whether the measured pIC50 reaches 5, counting equality as reaching it, for C[C@@H]1C[C@@H](C(=O)Nc2cncc3ccccc23)c2cc(Cl)ccc2O1 (stereo in doubt)
Ans: T
